- experimental_protocol: NCI Yeast Anticancer Drug Screen. Data for the sgs1 mgt1 strain (AID 161);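 note: 0% = growth of cultures given vehicle only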
- condition: S. cerevisiae sgs1 mgt1 strain, at 5.0 µM (retest, dose inferred, filed as 0.5), stronger effect = higher value
This is part of a sample that, as a whole, favours compounds with a hit. Of some 79,000 tested, about 15% had one in any assay.
observed_property: growth inhibition (%)
Reply numerically in %, unit not repeated.

// below: answered compounds
CCOC(=O)Nc1ccc2c(c1)Cc1ccccc1-2
4
CC(C)(O)c1ccccc1C(c1ccccc1)c1ccccc1
25
NC(N)=N/N=C/c1cc(Cl)cc(Cl)c1O
4
Cc1ccc2occ/c(=N\Nc3ccccc3)c2c1
-1
S=c1nc(Cl)cc2[nH]c(Cl)cn12
-61

Challenge: So what's the measured growth inhibition for this one? `CCCCC1=NNC(=O)C1`
Response given: 17

Challenge: # iterate: `Cc1c(-c2ccccc2)[nH]c2ccccc12`
Response given: -1

* * *

Property: growth inhibition; scope: individual compounds
- experimental_protocol: NCI Yeast Anticancer Drug Screen. Data for the wt1 strain (AID 149);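 note: 0% = growth of vehicle-treated wt1 cultures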
- condition: S. cerevisiae wt1 strain (SPY 50644) growth inhibition; at 3.7 µM; stronger effect = higher value
The panel holds about 79,000 compounds, 15% with a hit somewhere; the sample as a whole holds those more often.
Please state the figure in %; there is no need to write the unit.

Record excerpt, results attached:
O=S(=O)(c1cc(Cl)ccc1O)c1cc(Cl)ccc1O
89
OC(CN1CCCCC1)c1cc(Cl)c(Cl)c(Cl)c1 (stereo not given)
9
O=C1OC2C(O)COC2(OCc2c[nH]c3ccccc23)C1O (stereo not given) (tested in a mixture with another compound)
-1
CN=C(N)N/N=C(\C)c1ccc2oc3ccc(/C(C)=N/NC(N)=NC)cc3c2c1
-21

Challenge: What does the record list as growth inhibition for `COc1ccc2oc(-c3ccc(Cl)cc3)c(N3CCN(C)CC3)c2c1` ?
Response given: -3

* * *

- experimental_protocol: NCI Yeast Anticancer Drug Screen. Data for the rad18 strain (AID 177)
- condition: S. cerevisiae rad18 mutant growth inhibition; at 100.0 µM
This is part of a sample that, as a whole, favours compounds with a hit. Of some 79,000 tested, about 15% had one in any assay. Active and inactive are the calls of the source. Cut-off read from the data, not from the text of the source: active = growth inhibition above about 70%; inactive = the rest.
Classes to choose from: y for active, n for inactive

N#CSC1CCCCNC1=O (stereo not drawn)
y
Nc1ccc(CCl)cc1Cc1c(O)ccc2ccccc12
n
CN(NC(=O)/C(=C/c1ccc(O)cc1)NC(=O)c1ccccc1)c1ccnc2cc(Cl)ccc12
y
Cc1ccc2c(ccc(/C=C/c3ccc(O)c4ncccc34)[n+]2C)c1
n
N#C/C(=C\c1ccccc1)c1ccccc1F
n
CC1=CC2C(C(C)C)CC1C1C(=O)OC(=O)C21 (stereo not drawn)
n

Challenge: Name the outcome recorded for `O=c1ccc(N=Nc2ccccc2)ccc1O` in the assay.
Response given: y

Challenge: # iterate: `Clc1nc(C(Cl)Cl)nc2sc3c(c12)CCCC3`
Response given: n

Challenge: Do the same for `N#C/C(=C/N1C(=O)/C(=C/c2ccc([N+](=O)[O-])cc2)SC1=S)c1nc2ccccc2s1` please
Response given: y

Challenge: Another: `O=C1C=CC(=O)N1c1ccc(N2C(=O)C=CC2=O)cc1`
Response given: y

Challenge: Ok, now `COC(=O)c1n[nH]c(C)c1N=NN(C)CCC#N`
Response given: y

Challenge: What would you report for `O=C1c2c(O)cccc2-c2nn(CCNCCO)c3ccc(NCCNCCO)c1c23` ?
Response given: n

Challenge: Next: `O=C(O)c1cccc2cccc(-c3c4ccc(=O)cc-4oc4cc(O)ccc34)c12`
Response given: y

Challenge: How about this compound: `CN(N=O)C(=O)N[C@@H](C=O)[C@@H](O)[C@H](O)[C@H](O)CO`
Response given: n

Challenge: # repeat for `O=C(/C=C\c1ccc([N+](=O)[O-])o1)Nc1ccc(Cl)cc1`
Response given: y

Challenge: Would you mind doing `C=C(CCCO)[C@@H]1CC[C@@](C)(O)[C@H]1C` as well?
Response given: n

Challenge: One more compound: `O=C(Nc1cccc(C(F)(F)F)c1)Oc1ccc(Cl)cc1C(=O)c1ccccc1`
Response given: y

Challenge: What about this compound? `CC(C)(C)c1ccc(O)c(C(c2ccc([N+](=O)[O-])cc2)c2cc(C(C)(C)C)ccc2O)c1`
Response given: y

Challenge: Subsequent entry: `CN(C)CCN1C(=O)c2cccc3cc([N+](=O)[O-])cc(c23)C1=O`
Response given: y

Challenge: How about this compound: `NNC(=S)Nc1cccc(Cl)c1`
Response given: y

Challenge: // same read-out, input: `O=C1C=CC(=Nc2ccccc2)c2ccccc21`
Response given: y

Challenge: Request: CC(=O)C1=C(O)C2(C)c3c(O)c(C)c(O)c(C(C)=O)c3OC2(Sc2ccccc2)CC1=O (stereo not drawn)
Response given: y

Challenge: Request: `CN(C)c1ccc(/C=C/c2ccnc3ccccc23)cc1N`
Response given: n

Challenge: // repeat for `COc1ccc(N2CN(C)CSC2=S)cc1` and report
Response given: n
